Assay: Apparent oral volume of distribution in Sprague-Dawley rat plasma at 10 mg/kg, ip
Type: ADME, organism-based
Design: dose 10 mg/kg
Conditions: read-out: Vc/F
property.name: Vd/F (L/kg)
State the answer as a number, implicitly in L/kg.

Query string: Read off the recorded Vd/F for `COc1ccc(CN2C(=O)C(=O)c3cc(OC(F)(F)F)ccc32)cc1`
Result string: 59.6

---

Target: Muscarinic acetylcholine receptor M1 (Rattus norvegicus)
Sequence (P08482 whole entry): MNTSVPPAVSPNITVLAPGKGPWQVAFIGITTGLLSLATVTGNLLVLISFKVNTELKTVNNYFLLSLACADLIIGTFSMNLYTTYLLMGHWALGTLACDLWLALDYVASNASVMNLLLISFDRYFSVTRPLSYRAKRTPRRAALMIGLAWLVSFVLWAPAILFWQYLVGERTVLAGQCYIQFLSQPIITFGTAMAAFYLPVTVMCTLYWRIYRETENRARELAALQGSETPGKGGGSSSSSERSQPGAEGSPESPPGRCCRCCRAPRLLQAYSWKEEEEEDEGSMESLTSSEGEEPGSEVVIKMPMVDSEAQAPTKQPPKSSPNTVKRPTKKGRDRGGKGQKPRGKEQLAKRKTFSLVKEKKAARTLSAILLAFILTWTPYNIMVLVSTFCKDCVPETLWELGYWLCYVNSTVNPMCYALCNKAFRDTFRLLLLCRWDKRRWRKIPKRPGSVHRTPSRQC
Assay: Activation of rat muscarinic M1 receptor expressed in CHO cells co-expressing Gq protein assessed as potentiation of acetylcholine-induced intracellular Ca2+ mobilization
# pEC50 annotations
Please express pEC50 as -log10 of the molar concentration.

[[record]]
given_smiles = "O=C1C(=O)N(Cc2ccc(C(F)(F)F)cc2)c2ccc(OC(F)(F)F)cc21"
readout_number = 5.15

[[record]]
given_smiles = "O=C1C(=O)N(Cc2ccc(Br)cc2)c2ccccc21"
readout_number = 5.22


Turning now to a further record.
Query string: Read off the recorded pEC50 for `O=C1C(=O)N(Cc2ccc(C(F)(F)F)cc2)c2c(F)cccc21`
Result string: 5.29
